- System: IL-2
- Experimental protocol: PHA-IL2 (cell activation and cytokine analysis)
- Type: cell-based
- Measurement setup: 50% inhibition concentration class
- Source text: Cells to be tested may include, but are not limited to, a) Jurkat (a transformed human T cell leukemia), b) whole blood isolated from human or rodent sources, c) peripheral blood mononuclear cells (PBMC) freshly isolated from human or rodent whole blood, or d) purified fractions of PBMC (e.g., CD4 T cells). […] Cytokines to be analyzed may include IL-2, IL-4, IL-10, IL-17, IL-22, IFNγ, and/or TNFα. […]
The compounds listed here are annotated with their IC50.

Recorded results for 3 compounds are shown here.
| Compound | Data value |
| --- | --- |
| COc1cccc(CCC2CCN(C(=O)C(C)Oc3c(C)cccc3-c3ccccc3)CC2)c1 (stereo not shown) | < 1000 nM |
| Cc1cc(F)ncc1-c1ncccc1OCC(=O)N1CCC(CCc2ccc3c(c2)OCCO3)CC1 | 10000 to 50000 nM |
| O=C(COc1ccc(C(F)(F)F)cc1-c1ccc(F)cc1O)N1CCC(CCc2ccccc2)CC1 | < 1000 nM |

Please examine the following record next.
Record N#Cc1ccc(OCC(=O)N2CCC(CCc3ccc4c(c3)OCCO4)CC2)c(-c2ccc(F)cc2O)c1 . Reported IC50: < 1000 nM
